molecular target: T1, recombinant human ILT4 (LILRB2) (human, UniProt Q8N423 22-460); assay: SPR, Biacore T200, medium resolution; koff held at its limit of 4.27e-5 s^-1
T1 construct: Bought protein (Acro Biosystems or R&D Systems); also called ILTR4
T1 sequence (Q8N423 other isoform, or with tags, fused parts or gaps limits assumed): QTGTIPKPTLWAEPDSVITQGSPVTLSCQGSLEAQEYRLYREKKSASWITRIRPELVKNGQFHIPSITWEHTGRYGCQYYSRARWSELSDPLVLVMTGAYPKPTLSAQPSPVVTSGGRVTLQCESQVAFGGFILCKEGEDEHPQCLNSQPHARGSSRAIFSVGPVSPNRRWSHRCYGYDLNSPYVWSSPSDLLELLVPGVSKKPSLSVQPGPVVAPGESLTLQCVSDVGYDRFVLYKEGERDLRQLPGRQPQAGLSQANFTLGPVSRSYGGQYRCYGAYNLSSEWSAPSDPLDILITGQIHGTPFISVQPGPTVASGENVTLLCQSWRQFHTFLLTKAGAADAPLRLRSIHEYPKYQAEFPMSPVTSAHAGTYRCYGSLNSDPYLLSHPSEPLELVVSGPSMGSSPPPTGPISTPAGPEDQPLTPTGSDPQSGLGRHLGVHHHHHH
Item-by-item account of Kd
ASSAY ENDPOINT: Kd

- BINDER: "Hz77-LALA (antibody, human IgG1, kappa, L234A L235A, V domains shown, Humanized L77S2, human IgG1 L234A/L235A, kappa; also called Humanized 77_01; Hz 77 01) VH: QVQLVQSGAEVKKPGSSVKVSCKASGYSFTGYSVNWVRQAPGQGLEWIGRINPYNGDIFNNQKFKGRATITVDKSTSTAYMELSSLRSEDTAVYYCARGTTVGGAWFAYWGQGTLVTVSS VL: DIVMTQSPDSLAVSLGERATINCRASESVDSYGYSFLHWYQQKPGQPPKLLIYLASNLESGIPDRFSGSGSGTDFTLTISSLQAEDVAVYYCQQSNEDLMYTFGGGTKVEIKR"
  ASSAY ENDPOINT: "Kd"
  EXPERIMENTAL RESULT: "≤ 0.052 nM"
- BINDER: "L77S2 (antibody, IgG1, V domains shown, also called Murine 77; mouse anti-human ILT4 antibody L77S2) VH: DVQLQQSGPELVKPGNSVKISCKAAGYSFTGYSVNWVKERHGKSLEWIGRINPYNGDIFNNQKFKGKATLTVDKSSSTAHMELRSLTSEDSAVYYCARGTTVGGAWFAYWGQGTLVTVSA VL: VIVLTQSPASLAVSLGQRAAISCRASESVDSYGYSFLHWYQQKPGQPPKLLIYLASNLESGIPARFSGSGSGTDFTLTINPVEADDVATYYCQQSNEDLMYTFGGGTKLEIK"
  ASSAY ENDPOINT: "Kd"
  EXPERIMENTAL RESULT: "≤ 0.111 nM"
- BINDER: "L156S3 (antibody, IgG2a, V domains shown, also called mouse anti-human ILT4 antibody L156S3) VH: QVQLKQSGAELVRPGASVKLSCRASGYTFTDYYMNWVKQRPGQGLEWIARIYPGVYRTHYNEKFKDKATLTAEKSSSTAYMELSSLTSEDSAVYFCARSGYYGGTYEEDAMDYWGQGTSVTVSS VL: DIQMTQSPASLSVSVGETVTITCRASENIYSNLAWYQQKQGKSPQLLVYAATSLADGVPSRFRGSGSGTQYSLKISSLQSEDFGNYYCQNFWDTPYTFGGGTKLEIK"
  ASSAY ENDPOINT: "Kd"
  EXPERIMENTAL RESULT: "≤ 0.16 nM"

Recorded values, source patent US20260167714A1.
